target: Cytochrome P450 2C19 (Homo sapiens); assay: blockers of cytochrome P450 2C19 activity – biochemical, luminescence, ADME assay, primary screen (AID 778); conditions: CYP2C19 Supersomes, luciferin-H EGE luminescence, 30 min; at 5 µM;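 further: plate controls were negative control wells for no effect and 2.5 mM tranylcypromine positive control for full effect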
Among all 96,000 compounds or so, about 20,000 (21%) were called active.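 How the source made its calls: active means CYP2C19 inhibition above a set limit at 5 µM in the primary screen (cut at about 50% in these data); inactive means the rest.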 These entries were drawn from the full list.
Valid outcomes are listed here; reply with one: 1 for active, 0 for inactive

Recorded results for 3 compounds are shown here.
Request: For C/C(=N\c1nc2ccccc2n1C)c1cc(Cl)ccc1O , which call appears in the assay record?
Response: 0

Request: For CC(=O)Nc1cccc(NC(=O)c2c(-c3ccccc3)noc2C)c1 , which call appears in the assay record?
Response: 1

Request: For N/C(=N\OC(=O)c1cc(-c2ccccc2)nc2ccccc12)c1ccncc1 , which call appears in the assay record?
Response: 0

Others:
Request: For Cn1c(Cn2nnc3ccccc32)nnc1SCC(=O)c1ccccc1F , which call appears in the assay record?
Response: 0

Request: For CSc1ccc(-c2c(C#N)c(N)nc3c2c(C)nn3-c2ccccc2)cc1 , which call appears in the assay record?
Response: 0

Request: For Cc1cc(C)cc(NS(=O)(=O)c2ccc(Oc3ncc(C(F)(F)F)cc3Cl)cc2)c1 , which call appears in the assay record?
Response: 0

###

molecular target: Cytochrome P450 2C19 (Homo sapiens) (UniProt P33261); experiment: blockers of cytochrome P450 2C19 activity – biochemical, luminescence, ADME assay, primary screen (AID 778); settings: CYP2C19 Supersomes, luciferin-H EGE luminescence, 30 min; at 5 µM; hits give high values;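 further: plate controls were negative control wells for no effect and 2.5 mM tranylcypromine positive control for full effect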
Sequence (P33261 whole entry, looked up): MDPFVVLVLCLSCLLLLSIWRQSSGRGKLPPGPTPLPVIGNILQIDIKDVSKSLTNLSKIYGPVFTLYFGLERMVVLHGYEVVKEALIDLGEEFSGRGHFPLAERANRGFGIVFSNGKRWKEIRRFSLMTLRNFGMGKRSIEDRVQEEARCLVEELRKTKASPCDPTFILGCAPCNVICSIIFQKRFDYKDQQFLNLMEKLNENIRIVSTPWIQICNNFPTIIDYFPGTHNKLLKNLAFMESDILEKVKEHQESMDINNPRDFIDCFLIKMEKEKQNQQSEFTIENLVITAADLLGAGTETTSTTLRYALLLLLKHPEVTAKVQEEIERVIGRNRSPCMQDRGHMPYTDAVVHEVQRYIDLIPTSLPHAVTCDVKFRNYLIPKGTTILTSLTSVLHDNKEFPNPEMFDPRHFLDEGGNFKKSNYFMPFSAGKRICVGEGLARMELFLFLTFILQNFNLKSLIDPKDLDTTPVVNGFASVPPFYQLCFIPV
Screen size: about 96,000 compounds; about 20,000 (21%) were called active. These entries were drawn from the full list.
observed property: inhibition (%)
All answers are understood in %, so give the number only.

// inhibition value for N#Cc1c(N)sc2c1CCN(C(=O)OCc1ccccc1)C2 : 92.8

// inhibition value for COc1cccc(OCc2cc(/C=N/NC(=O)c3nc(Cl)c(Cl)c(N)c3Cl)ccc2OC)c1 : 55.4

// inhibition value for COc1ccc(C)c(Cn2c(-c3nonc3N)nc3ccccc32)c1 : 18.5

// inhibition value for CCCn1c(C(O)c2cc(OC)ccc2OC)nc2ccccc21 (configuration not stated) : 74.3

// inhibition value for CCOC(=O)N1CCN(C(=O)C2CC(c3ccc(F)cc3)=NO2)CC1 (configuration not stated) : 1.7

// inhibition value for Cc1nc2nc(COc3ccccc3)[nH]n2c(=O)c1Cc1ccccc1 : -2.5

Would you kindly look at the next entry?
// inhibition value for CCOc1ccc(CN(Cc2ccco2)C(c2cccs2)c2nnnn2C(C)(C)C)cc1 (configuration not stated) : 47.8

###

biological target: Cytochrome P450 2C19 (Homo sapiens) (UniProt P33261); assay: blockers of cytochrome P450 2C19 activity – biochemical, luminescence, ADME assay, primary screen (AID 778); settings: CYP2C19 Supersomes, luciferin-H EGE luminescence, 30 min; at 5 µM;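 further: plate controls were negative control wells for no effect and 2.5 mM tranylcypromine positive control for full effect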
Out of some 96,000 compounds screened, about 20,000 (21%) were called active.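 The calls were made as follows: active = CYP2C19 inhibition above a set limit at 5 µM in the primary screen (cut at about 50% in these data); inactive = the rest.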 A selection follows.
Valid outcomes are listed here; reply with one: active, inactive

Request: For CCS(=O)(=O)n1nc(-c2ccccc2)nc1SCc1ccccc1 , which call appears in the assay record?
Response: active

Others:
Request: For CCC(c1nnnn1C1CCCC1)N(Cc1cccs1)Cc1cc2cccc(C)c2[nH]c1=O (stereo not given) , which call appears in the assay record?
Response: inactive

Request: For Cc1cc(O)ccc1-c1cnc2ccccc2n1 , which call appears in the assay record?
Response: active

Request: For CN1CCN(c2ccc(NC(=O)COc3ccc(Cl)cc3Cl)cc2)CC1 , which call appears in the assay record?
Response: inactive

Request: For CC(C)(C)OC(=O)c1c(N)n(CCCN2CCCC2=O)c2nc3ccccc3nc12 , which call appears in the assay record?
Response: inactive
